Parameter: MIC. Scope: all listed entries.
System: Enterococcus faecium
test.details: Antimicrobial activity against Enterococcus faecium 10-5 after 18-24 hrs by two-fold serial dilution method
Format: functional
Please state the figure in µg/mL; there is no need to write the unit.

A selection of reference data follows.
compound | MIC [µg/mL]
CS(=O)(=O)O.NCC1CN(c2nc3c(cc2F)c(=O)c(C(=O)O)cn3C2CC2)C/C1=N\OCc1cc2c(cc1Cl)OCO2 (racemic) | 8
COc1cccc(CO/N=C2\CN(c3nc4c(cc3F)c(=O)c(C(=O)O)cn4C3CC3)CC2CN)c1OC.CS(=O)(=O)O (racemic) | 4
COc1ccc(CO/N=C2\CN(c3nc4c(cc3F)c(=O)c(C(=O)O)cn4C3CC3)CC2CN)c(OC)c1OC.CS(=O)(=O)O (racemic) | 4
CS(=O)(=O)O.Cc1ccc(CO/N=C2\CN(c3nc4c(cc3F)c(=O)c(C(=O)O)cn4C3CC3)CC2CN)cc1C (racemic) | 8
COc1cc(CO/N=C2\CN(c3nc4c(cc3F)c(=O)c(C(=O)O)cn4C3CC3)CC2CN)cc(Cl)c1OC.CS(=O)(=O)O (racemic) | 8

// map COc1cc(CO/N=C2\CN(c3nc4c(cc3F)c(=O)c(C(=O)O)cn4C3CC3)CC2CN)cc(OC)c1OC.CS(=O)(=O)O (racemic) to recorded MIC (system: Enterococcus faecium)
8

What reported MIC corresponds to COc1ccc(CO/N=C2\CN(c3nc4c(cc3F)c(=O)c(C(=O)O)cn4C3CC3)CC2CN)c(Cl)c1OC.CS(=O)(=O)O (racemic) on Enterococcus faecium?
4

* * *

Tested on: Escherichia coli
test.details: Antimicrobial activity against extended spectrum beta-lactamases-producing Escherichia coli 10-3 after 18-24 hrs by two-fold serial dilution method
Assay type: functional
Below, each of the compounds is paired with its reported MIC value.

Previously resolved entries follow.
compound | result
CS(=O)(=O)O.NCC1CN(c2nc3c(cc2F)c(=O)c(C(=O)O)cn3C2CC2)C/C1=N\OCc1cc2c(cc1Cl)OCO2 (racemic) | > 128 µg/mL
COc1ccc(CO/N=C2\CN(c3nc4c(cc3F)c(=O)c(C(=O)O)cn4C3CC3)CC2CN)c([N+](=O)[O-])c1OC.CS(=O)(=O)O (racemic) | > 128 µg/mL

Test system Escherichia coli; read-out MIC; what value for COc1cccc(OC)c1CO/N=C1\CN(c2nc3c(cc2F)c(=O)c(C(=O)O)cn3C2CC2)CC1CN.CS(=O)(=O)O (racemic) ?
16 µg/mL

Request - read-out MIC | tested on Escherichia coli | compound CS(=O)(=O)O.NCC1CN(c2nc3c(cc2F)c(=O)c(C(=O)O)cn3C2CC2)C/C1=N\OCc1cc2c(cc1[N+](=O)[O-])OCO2 (racemic)
32 µg/mL

So what MIC did CO/N=C1\CN(c2nc3c(cc2F)c(=O)c(C(=O)O)cn3C2CC2)CC1CN (stereo unspecified) get with Escherichia coli?
2 µg/mL

Hello, I am looking for reported MIC with Escherichia coli for CS(=O)(=O)O.NCC1CN(c2nc3c(cc2F)c(=O)c(C(=O)O)cn3C2CC2)C/C1=N\OCc1ccccc1 (racemic) . Could you help?
32 µg/mL

Look up MIC with Escherichia coli for this compound: COc1cc(F)c(CO/N=C2\CN(c3nc4c(cc3F)c(=O)c(C(=O)O)cn4C3CC3)CC2CN)cc1OC.CS(=O)(=O)O (racemic)
> 128 µg/mL

I'm curious: which MIC was measured for COc1cc(CO/N=C2\CN(c3nc4c(cc3F)c(=O)c(C(=O)O)cn4C3CC3)CC2CN)cc(Cl)c1OC.CS(=O)(=O)O (racemic) tested on Escherichia coli?
> 128 µg/mL
